Data origin, for the record: the supplement of paper PMC11208160

Field: recombinant UMI read abundance (log10). Provide a value for each of the sequences that follow.
ASSAY_SUMMARY: recombinant UMI read abundance after kanamycin selection (control-corrected) (log10(CPM+1)); higher = more efficient recombination; extreme values may be limits of the assay; sequences stand for … in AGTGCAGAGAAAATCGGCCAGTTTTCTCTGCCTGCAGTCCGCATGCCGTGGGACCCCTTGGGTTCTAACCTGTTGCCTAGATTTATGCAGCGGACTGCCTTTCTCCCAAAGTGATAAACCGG…AGGTTGGTTTCACT; site = the 11-nt donor;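 further: IS621 bridge recombinase in Escherichia coli cells against a fixed T5 target plasmid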
Output: the number by itself.

Query: Need recombinant UMI read abundance (log10) of GTGCTTGCATGGACCGGTTTTCCCGGTAATCCGTATTTGGT (site GTGCTTGCTAC) , thanks.
Response: 1.07

Query: Need recombinant UMI read abundance (log10) of CCGTTCGCATGGACCGGTTTTCCCGGTAATCCGTATTTGTG (site CCGTTGGCTCA) , thanks.
Response: 0.0144

Query: Need recombinant UMI read abundance (log10) of TAGCCTCCATGGACCGGTTTTCCCGGTAATCCGTATTTGGT (site TAGCCTCCTAC) , thanks.
Response: 0.00993

Query: Need recombinant UMI read abundance (log10) of CGTTAGACATGGACCGGTTTTCCCGGTAATCCGTATTTGAA (site CGTTAGACTTT) , thanks.
Response: 1.33

Query: Need recombinant UMI read abundance (log10) of TATTTGGCATGGACCGGTTTTCCCGGTAATCCGTATTTGTG (site TATTTAGCTCA) , thanks.
Response: 0.0189

Query: Need recombinant UMI read abundance (log10) of AAGCACGCATGGACCGGTTTTCCCGGTAATCCGTATTTGGA (site AAGCACGCTAC) , thanks.
Response: 0.0278

Query: Need recombinant UMI read abundance (log10) of TCTGGTCCATGGACCGGTTTTCCCGGTAATCCGTATTTGAG (site TCTGGTCCTCT) , thanks.
Response: 0.00736

Query: Need recombinant UMI read abundance (log10) of AACCGTTCATGGACCGGTTTTCCCGGTAATCCGTATTTGAT (site AACCGTACTAT) , thanks.
Response: 0.00732

Query: Need recombinant UMI read abundance (log10) of TGTTCCCCATGGACCGGTTTTCCCGGTAATCCGTATTTGTA (site TGTTCCCCTTA) , thanks.
Response: 0.625

Query: Need recombinant UMI read abundance (log10) of CCGCTAGCATGGACCGGTTTTCCCGGTAATCCGTATTTGTG (site CCGCTAGCTCA) , thanks.
Response: 0.337

Query: Need recombinant UMI read abundance (log10) of TGGCCTGCATGGACCGGTTTTCCCGGTAATCCGTATTTGGC (site TGGCCTGCTGC) , thanks.
Response: 0

Query: Need recombinant UMI read abundance (log10) of TGTACACCATGGACCGGTTTTCCCGGTAATCCGTATTTGAG (site TGTACACCTGT) , thanks.
Response: 0

Query: Need recombinant UMI read abundance (log10) of ATAGGGCCATGGACCGGTTTTCCCGGTAATCCGTATTTGAC (site ATATGGCCTGT) , thanks.
Response: 0

Query: Need recombinant UMI read abundance (log10) of AGAAAGGCATGGACCGGTTTTCCCGGTAATCCGTATTTGCT (site AGCAAGGCTAG) , thanks.
Response: 0

Query: Need recombinant UMI read abundance (log10) of TTAGCTGCATGGACCGGTTTTCCCGGTAATCCGTATTTGCG (site TTAGCTGCTCT) , thanks.
Response: 0.00813

Query: Need recombinant UMI read abundance (log10) of CTGCTACCATGGACCGGTTTTCCCGGTAATCCGTATTTGCT (site CTGCAACCTAG) , thanks.
Response: 0

Query: Need recombinant UMI read abundance (log10) of CACGGCCCATGGACCGGTTTTCCCGGTAATCCGTATTTGTC (site CACGGCCCTTA) , thanks.
Response: 0.469

Query: Need recombinant UMI read abundance (log10) of GTATGCACATGGACCGGTTTTCCCGGTAATCCGTATTTGTA (site GTATGCGCTTA) , thanks.
Response: 0.376

Query: Need recombinant UMI read abundance (log10) of CCTACTACATGGACCGGTTTTCCCGGTAATCCGTATTTGGC (site CCTAATACTGC) , thanks.
Response: 0

Query: Need recombinant UMI read abundance (log10) of GCTACTTCATGGACCGGTTTTCCCGGTAATCCGTATTTGCC (site GCTACTCCTGG) , thanks.
Response: 0

Query: Need recombinant UMI read abundance (log10) of CAGCACGCATGGACCGGTTTTCCCGGTAATCCGTATTTGAT (site CAGCACGCTAT) , thanks.
Response: 2.39

Query: Need recombinant UMI read abundance (log10) of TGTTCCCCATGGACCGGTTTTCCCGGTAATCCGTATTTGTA (site TGTTCCCCTCA) , thanks.
Response: 0.0333

Query: Need recombinant UMI read abundance (log10) of AAGTAGACATGGACCGGTTTTCCCGGTAATCCGTATTTGCA (site AAGTAGACTTG) , thanks.
Response: 2.72

Query: Need recombinant UMI read abundance (log10) of GCCACGCCATGGACCGGTTTTCCCGGTAATCCGTATTTGTA (site GCCACGCCTTC) , thanks.
Response: 0.00289

Query: Need recombinant UMI read abundance (log10) of GTAAGTACATGGACCGGTTTTCCCGGTAATCCGTATTTGAC (site GTACGTACTGT) , thanks.
Response: 0

Query: Need recombinant UMI read abundance (log10) of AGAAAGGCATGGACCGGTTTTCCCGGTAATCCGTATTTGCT (site AGAAACGCTAG) , thanks.
Response: 0

Query: Need recombinant UMI read abundance (log10) of TACGGTACATGGACCGGTTTTCCCGGTAATCCGTATTTGTG (site TACGGTACTCA) , thanks.
Response: 0.582
